Molecular target: human mGluR4 transiently over-expressed in HEK-293 cells (Homo sapiens, UniProt Q14833)
Sequence (Q14833 33-912): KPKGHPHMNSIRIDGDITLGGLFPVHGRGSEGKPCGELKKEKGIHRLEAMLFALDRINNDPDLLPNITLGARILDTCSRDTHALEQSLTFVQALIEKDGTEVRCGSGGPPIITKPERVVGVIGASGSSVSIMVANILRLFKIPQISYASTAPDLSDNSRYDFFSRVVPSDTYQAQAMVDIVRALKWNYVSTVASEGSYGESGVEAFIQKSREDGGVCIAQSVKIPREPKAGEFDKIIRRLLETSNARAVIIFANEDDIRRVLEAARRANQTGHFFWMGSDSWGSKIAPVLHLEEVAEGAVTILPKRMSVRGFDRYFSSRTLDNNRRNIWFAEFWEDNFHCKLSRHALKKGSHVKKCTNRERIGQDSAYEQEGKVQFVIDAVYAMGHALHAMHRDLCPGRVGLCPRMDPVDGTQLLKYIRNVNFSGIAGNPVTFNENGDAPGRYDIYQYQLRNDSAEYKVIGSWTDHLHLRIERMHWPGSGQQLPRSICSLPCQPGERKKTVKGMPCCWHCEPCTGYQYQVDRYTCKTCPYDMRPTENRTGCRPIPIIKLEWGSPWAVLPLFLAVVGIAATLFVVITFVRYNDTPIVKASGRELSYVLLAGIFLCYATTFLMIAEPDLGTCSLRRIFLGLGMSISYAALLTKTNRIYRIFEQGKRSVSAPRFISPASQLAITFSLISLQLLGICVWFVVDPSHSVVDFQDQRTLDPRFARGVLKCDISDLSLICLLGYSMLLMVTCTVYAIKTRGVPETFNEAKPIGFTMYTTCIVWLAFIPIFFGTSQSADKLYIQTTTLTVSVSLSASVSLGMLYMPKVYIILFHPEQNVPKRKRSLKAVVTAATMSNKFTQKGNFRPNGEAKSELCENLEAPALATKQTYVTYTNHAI
Test: Human mGluR4 positive allosteric modulator evaluation using Ca++ functional assay
Details: HEK-293 cells co-transfected with hmGluR4 and chimeric G protein; EC10 glutamate; intracellular calcium (Fluo4AM); read-out: mean EC50 of agonist/positive allosteric modulator activity on mGluR4
Reported EC50 by item:

compound: ON=c1cc(-c2cc3cccn3cn2)oc2ccccc12
system_name: human mGluR4 transiently over-expressed in HEK-293 cells (Homo sapiens, UniProt Q14833)
EC50: < 1 µM

compound: ON=c1cc(-c2cc3cccn3cn2)oc2ccc(OCCCOc3ccccc3)cc12
system_name: human mGluR4 transiently over-expressed in HEK-293 cells (Homo sapiens, UniProt Q14833)
EC50: < 1 µM

compound: Cl.ON=c1cc(-c2cc3cccn3cn2)oc2ccc(OCCN3CCC(O)C3)cc12 (stereo not drawn) [Example 98, hydrochloride]
system_name: human mGluR4 transiently over-expressed in HEK-293 cells (Homo sapiens, UniProt Q14833)
EC50: < 1 µM

compound: ON=c1cc(-c2cc3cccn3cn2)oc2ccc(O)cc12
system_name: human mGluR4 transiently over-expressed in HEK-293 cells (Homo sapiens, UniProt Q14833)
EC50: < 1 µM

compound: ON=c1cc(-c2cn3cccc3cn2)oc2ccccc12
system_name: human mGluR4 transiently over-expressed in HEK-293 cells (Homo sapiens, UniProt Q14833)
EC50: < 1 µM

compound: COCCOc1cccc(C#Cc2ccc3c(=NO)cc(-c4cc5ccccc5cn4)oc3c2)c1 (mixture of isomers)
system_name: human mGluR4 transiently over-expressed in HEK-293 cells (Homo sapiens, UniProt Q14833)
EC50: < 1 µM

compound: ON=c1cc(-c2cc3cccn3cn2)oc2ccc(OCCc3cccc(F)c3)cc12
system_name: human mGluR4 transiently over-expressed in HEK-293 cells (Homo sapiens, UniProt Q14833)
EC50: < 1 µM

compound: ON=c1cc(-c2cc3cccn3cn2)oc2ccc(OCCOc3cccnc3)cc12
system_name: human mGluR4 transiently over-expressed in HEK-293 cells (Homo sapiens, UniProt Q14833)
EC50: < 1 µM

compound: ON=c1cc(-c2cc3ccccc3cn2)oc2cc(C#Cc3ccccn3)ccc12
system_name: human mGluR4 transiently over-expressed in HEK-293 cells (Homo sapiens, UniProt Q14833)
EC50: < 5 µM

compound: ON=c1cc(-c2cc3ccccc3cn2)oc2cc(Br)ccc12 (mixture of isomers)
system_name: human mGluR4 transiently over-expressed in HEK-293 cells (Homo sapiens, UniProt Q14833)
EC50: < 5 µM

compound: ON=c1cc(-c2cc3ccccc3cn2)oc2ccc(F)cc12 (mixture of isomers)
system_name: human mGluR4 transiently over-expressed in HEK-293 cells (Homo sapiens, UniProt Q14833)
EC50: < 5 µM

compound: ON=c1cc(-c2cc3sccc3cn2)oc2ccc(OCCc3ccc(F)cc3)cc12
system_name: human mGluR4 transiently over-expressed in HEK-293 cells (Homo sapiens, UniProt Q14833)
EC50: < 1 µM

====

compound: Cl.Cl.ON=c1cc(-c2cc3cccn3cn2)oc2ccc(OCCN3CCC(N4CCCCC4)CC3)cc12
melting point: > 235 °C (dec.)

compound: Cl.ON=c1cc(-c2cc3cccn3cn2)oc2ccc(CCCCN3CCOCC3)cc12
melting point: 180 to 185 °C

compound: ON=c1cc(-c2cc3cccn3cn2)oc2ccc(OCCc3ccccc3)cc12
melting point: 210 °C

compound: ON=c1cc(-c2cc3ccccc3cn2)oc2ccc(C(F)(F)F)cc12 (mixture of isomers)
melting point: 245 to 247 °C

compound: Cc1cc(C)n2cnc(-c3cc(=NO)c4ccccc4o3)cc12
melting point: > 250 °C (dec.)

These entries and their values trace back to patent US8962627B2.
